Assay: Cytotoxicity against human HeLa cells assessed as reduction in cell viability after 48 hrs by MTT assay
Type: functional, cell-based
quantity: IC50 (µM)

                            molecularstring  censoringoperator  reported
0  COC(C)(C)CC/C=C(\C)[C@H]1CC[C@]2(C)[C@@H]1[C@H](O)C[C@@H]1[C@@]3(C)CC[C@H](O)C(C)(C)[C@@H]3CC[C@]12C                  =       1.3
1  COC(C)(C)CCC[C@@](C)(O)[C@H]1CC[C@]2(C)[C@@H]1[C@H](O)C[C@@H]1[C@@]3(C)CC[C@H](O)C(C)(C)[C@@H]3CC[C@]12C                  =      22.5
2  CC(C)(O)CCC[C@@](C)(O)[C@H]1CC[C@]2(C)[C@@H]1[C@H](O)C[C@@H]1[C@@]3(C)CC[C@H](O)C(C)(C)[C@@H]3CC[C@]12C                  =      46.4
3  COC(=O)O[C@H]1CC[C@]2(C)[C@H]3C[C@@H](O)[C@@H]4[C@@H]([C@](C)(O)CCCC(C)(C)OC(=O)OC)CC[C@@]4(C)[C@]3(C)CC[C@H]2C1(C)C                  =      34.6
4  CO[C@H]1CC[C@]2(C)[C@H]3C[C@@H](O)[C@@H]4[C@@H]([C@@](C)(CCCC(C)(C)O)OC)CC[C@@]4(C)[C@]3(C)CC[C@H]2C1(C)C                  =       6.7
5                   O=c1[nH]cc(F)c(=O)[nH]1                  =      28.2
6  COC(=O)O[C@H]1CC[C@]2(C)[C@H]3C[C@@H](OC(=O)OC)[C@@H]4[C@@H](/C(C)=C/CCC(C)(C)OC(=O)OC)CC[C@@]4(C)[C@]3(C)CC[C@H]2C1(C)C                  >       100

---

Experiment: Cytotoxicity against human DU145 cells assessed as reduction in cell viability after 48 hrs by MTT assay
Type: functional, cell-based
Details: DU-145, 48 h
Rule: IC50 below 60 µM gives True, anything at or above gives False.

>>> df
                            molecularstring  classlabel
0  COC(C)(C)CC/C=C(\C)[C@H]1CC[C@]2(C)[C@@H]1[C@H](O)C[C@@H]1[C@@]3(C)CC[C@H](O)C(C)(C)[C@@H]3CC[C@]12C        True
1  CO[C@H]1CC[C@]2(C)[C@H]3C[C@@H](OC)[C@@H]4[C@@H]([C@@](C)(CCCC(C)(C)OC)OC)CC[C@@]4(C)[C@]3(C)CC[C@H]2C1(C)C        True
2  COC(=O)O[C@H]1CC[C@]2(C)[C@H]3C[C@@H](O)[C@@H]4[C@@H]([C@](C)(O)CCCC(C)(C)O)CC[C@@]4(C)[C@]3(C)CC[C@H]2C1(C)C       False
3  CO[C@H]1CC[C@]2(C)[C@H]3C[C@@H](O)[C@@H]4[C@@H]([C@@](C)(CCCC(C)(C)O)OC)CC[C@@]4(C)[C@]3(C)CC[C@H]2C1(C)C        True
4  CC(C)(O)CCC[C@@](C)(O)[C@H]1CC[C@]2(C)[C@@H]1[C@H](O)C[C@@H]1[C@@]3(C)CC[C@H](O)C(C)(C)[C@@H]3CC[C@]12C        True
